# System: HFF-1 cells
ASSAY_ENDPOINT: CC50 (µM)
Numbers only, in µM.

Query: Give a short answer stating reported CC50 for NCCCN(CCCN)CCCCN(CCCN)CCCN [DAB-Am-4] .
Response: 15

====

# Test system: MEF cell line
ASSAY_ENDPOINT: CC50
Please answer using a numeric value trailed by its unit.

Query: State CC50 on MEF cell line. Entry: NCCCN(CCCN)CCCCN(CCCN)CCCN
Response: 22 µM
